Numbers sourced from ChEMBL document CHEMBL1124171.

Biological target: Serotonin 2 (5-HT2) receptor (Rattus norvegicus, UniProt P30994+P08909+P14842)
Assay: Binding affinity at 5-hydroxytryptamine 2 receptor from rat frontal cortex homogenates by [3H]-spiperone displacement.
Type: tissue-based
measured_endpoint: IC50 (nM)
Note: unit nM is implicit; provide only the numeric part.

Solved entries:
given_smiles | numeric_readout
C=C1C=C2c3cccc4c3[C@@H](CN4)C[C@H]2N(C)C1 | 3820
CC1=C[C@@H]2c3cccc4[nH]cc(c34)C[C@H]2N(C)C1 | 270
C[C@@H]1C=C2c3cccc4c3[C@@H](CN4)C[C@H]2N(C)C1 | 1665
C[C@@H]1C=C2c3cccc4c3[C@H](C[C@H]2N(C)C1)CN4C | 1250
CN1C[C@H](CSc2ccccc2)C=C2c3cccc4c3[C@@H](CN4)C[C@H]21 | 210

## Input Test system Serotonin 2 (5-HT2) receptor (Rattus norvegicus, UniProt P30994+P08909+P14842); read-out IC50; what value for `CN1C[C@H](CSc2ccccn2)C=C2c3cccc4c3[C@@H](CN4)C[C@H]21` ?
## Output 110

## Input How about this molecule: `COC(=O)[C@@H]1C=C2c3cccc4c3[C@@H](CN4)C[C@H]2N(C)C1`
## Output 1620

## Input How about this molecule: `C[C@@H]1C=C2c3cccc4[nH]cc(c34)C[C@H]2N(C)C1`
## Output 110

## Input How about this molecule: `C[C@@H]1C[C@@H]2c3cccc4c3[C@@H](CN4)C[C@H]2N(C)C1`
## Output 4220

## Input How about this molecule: `CN1C[C@H](CO)C[C@@H]2c3cccc4[nH]cc(c34)C[C@H]21`
## Output 450

## Input How about this molecule: `C=C1C=C2c3cccc4[nH]cc(c34)C[C@H]2N(C)C1`
## Output 140

## Input How about this molecule: `CN1C[C@H](CC#N)C=C2c3cccc4c3[C@@H](CN4)C[C@H]21`
## Output 2120

## Input How about this molecule: `C[C@H]1C=C2c3cccc4[nH]cc(c34)C[C@H]2N(C)C1`
## Output 130

## Input How about this molecule: `CN1C[C@H](CO)C=C2c3cccc4c3[C@@H](CN4)C[C@H]21`
## Output 2650
